Target: recombinant human TRKA (G595R) (Homo sapiens, UniProt P04629, G595R)
Sequence (P04629 33-796 G595R): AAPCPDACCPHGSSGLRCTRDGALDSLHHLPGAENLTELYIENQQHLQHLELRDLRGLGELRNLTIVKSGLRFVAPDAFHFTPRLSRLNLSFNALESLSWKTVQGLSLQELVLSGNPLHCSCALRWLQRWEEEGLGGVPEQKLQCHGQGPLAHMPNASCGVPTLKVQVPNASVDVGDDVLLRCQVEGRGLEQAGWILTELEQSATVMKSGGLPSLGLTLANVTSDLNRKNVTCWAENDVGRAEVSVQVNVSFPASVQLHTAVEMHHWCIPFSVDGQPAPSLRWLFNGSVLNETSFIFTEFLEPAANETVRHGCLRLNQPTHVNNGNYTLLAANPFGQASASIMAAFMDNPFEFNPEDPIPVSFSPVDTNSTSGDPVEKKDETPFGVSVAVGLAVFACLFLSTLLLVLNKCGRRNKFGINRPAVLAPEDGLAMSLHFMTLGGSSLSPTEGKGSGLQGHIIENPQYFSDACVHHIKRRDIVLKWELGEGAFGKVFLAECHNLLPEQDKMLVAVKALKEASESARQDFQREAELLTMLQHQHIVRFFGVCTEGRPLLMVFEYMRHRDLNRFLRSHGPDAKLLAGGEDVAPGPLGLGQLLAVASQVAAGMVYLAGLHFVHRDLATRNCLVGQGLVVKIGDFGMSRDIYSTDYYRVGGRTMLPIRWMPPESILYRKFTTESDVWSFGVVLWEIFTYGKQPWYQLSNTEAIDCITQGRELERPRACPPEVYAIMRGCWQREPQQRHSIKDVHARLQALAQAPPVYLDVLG
Experiment: In vitro activity test on mutant TRKA (G595R) (HTRF KinEASE TK)
Settings: 4.5 μM ATP, 30 min
# Lookup of reported IC50 keyed by entry

{"molecule": "CC1(C)CC(n2cc(-c3ccnc4ccc(N5CCC[C@@H]5c5cc(F)ccc5F)nc34)cn2)CCN1 (stereo partly shown)", "IC50": "< 10 nM"}
{"molecule": "O=c1n(-c2ncnc3ccc(N4C[C@@H](F)C[C@@H]4c4cc(F)ccc4F)nc23)ccn1C1CCNCC1", "IC50": "< 10 nM"}
{"molecule": "N#Cc1cnc2ccc(N3C[C@@H](F)C[C@@H]3c3cc(F)ccc3F)nc2c1-c1cnn(C2CCNCC2)c1", "IC50": "< 10 nM"}
{"molecule": "O[C@H]1CCN(c2ncc(-c3ncnc4ccc(N5C[C@@H](F)C[C@@H]5c5cc(F)ccc5F)nc34)cn2)C1", "IC50": "< 1 nM"}
